The measurements presented in this section are drawn from patent US20200079833A1.

assayed.system: GLP-1 receptor (human, UniProt P43220 24-463)
procedure.details: cell-based or functional assay
Starred links: 1 amine or outer side, 2 acyl side, 3 side chain; linkers in the order of their positions; H or OH if unused. Non-standard residues stand in square brackets, D forms with d. Groups on a side chain read outwards from the residue. Primed or numbered codes have the meaning given here. No end group written: not given here. *: point of attachment. γGlu = O=C(O)[C@H](CCC(=O)[*:2])N[*:1]; Stearoyl = CCCCCCCCCCCCCCCCCC(=O)*; αMeF = C[C@](N)(Cc1ccccc1)C(=O)O; αMeK = C[C@](N)(CCCCN)C(=O)O; αMeS = C[C@](N)(CO)C(=O)O; PEG2′ = not defined here; Aib = CC(C)(N)C(=O)O
Param threshold (20 pM) applies to Primary assay EC50 (cAMP), Mean pM GLP-1R; output rule met when value >= threshold, rule not met when value < threshold.

Observe how each entry below is paired with its result.
[
  {
    "binder": "H[Aib]EGS[αMeF]TSDV[αMeS]S[αMeF]LEGEAA[Aib]EFIK([PEG2′-PEG2′-γGlu-Stearoyl])WVVEGG-NH2 [SEQ ID NO 67]",
    "qualitative.label": "rule met"
  },
  {
    "binder": "H[Aib]EGSFTSDV[αMeS]S[αMeF]LEGEAAK([PEG2′-PEG2′-PEG2′-Stearoyl])E[αMeF]IA[αMeF]VV[αMeK]GG-NH2 [SEQ ID NO 51]",
    "qualitative.label": "rule not met"
  }
]

Check if Primary assay EC50 (cAMP), Mean pM GLP-1R >= 20 pM (inclusive). Item: H[Aib]EGS[αMeF]TSDV[αMeS]S[αMeF]LEGEAAK([PEG2′-PEG2′-γGlu-Stearoyl])E[αMeF]IA[αMeF]VV[αMeK]GG-NH2 [SEQ ID NO 3]
rule met

Let us now turn to H[Aib]EGS[αMeF]TSDV[αMeS]S[αMeF]LEGEAAK([PEG2′-PEG2′-PEG2′-Stearoyl])EFIA[αMeF]VV[αMeK]GG-NH2 [SEQ ID NO 54]
rule not met

// repeat for H[Aib]EGS[αMeF]TSDV[αMeS]S[αMeF]LEGEAA[αMeK]EFIK([PEG2′-PEG2′-γGlu-Stearoyl])WVVEGG-NH2 [SEQ ID NO 68] and report
rule not met

Another binder to look at: H[Aib]EGS[αMeF]TSDVSK([PEG2′-PEG2′-PEG2′-Stearoyl])YLEGEAAKE[αMeF]IA[αMeF]VVEGG-NH2 [SEQ ID NO 61]
rule not met

Ok, now H[Aib]EGS[αMeF]TSDVSS[αMeF]LEGEAAKE[αMeF]IA[αMeF]VVKGGK([PEG2′-PEG2′-γGlu-Stearoyl])-NH2 [SEQ ID NO 38]
rule met

Further, for H[Aib]EGS[αMeF]TSDVSK([PEG2′-PEG2′-γGlu-Stearoyl])YLEGEAA[αMeK]E[αMeF]IA[αMeF]VVEGG-NH2 [SEQ ID NO 60] ?
rule met

Request: H[Aib]EGS[αMeF]TSDV[αMeS]S[αMeF]LEGEAAK([PEG2′-PEG2′-PEG2′-Stearoyl])E[αMeF]IAWVV[αMeK]GG-NH2 [SEQ ID NO 55]
rule not met
